A collection of compounds and their measured melting point

Answered examples (8):
Identify measured melting point corresponding to NC(=NCC(F)(F)F)Nc1cnn(-c2cccc(C(=O)NCCO)c2)n1
171 to 173 °C

For the compound C=CCNc1cc(F)ccc1C(=O)O , give its measured melting point value.
136 to 139 °C

Determine its reported melting point: Cc1nc2cnccc2n1-c1ccc(OCc2cccc(C(=O)Nc3nc4cc(F)ccc4s3)c2)cc1
244 to 246 °C

Respond only with melting point recorded for O=C(O)/C=C/c1ccc(-c2nc3c(=O)n(CCC4CCCCCC4)c(=O)n(CCC4CCCCCC4)c3[nH]2)cc1
> 250 °C

Give reported melting point value for COC(=O)c1cc(CO)ccc1O
66 to 67 °C

Supply melting point value. Item: CCn1nc2c(N)nc3ccccc3c2c1CC1(F)CCN(C(=O)NC(C)C)CC1
205 to 207 °C

Return melting point (reported value) for this compound: CN1C(C)(C)CC(OC(=O)N=NC(=O)OC2CC(C)(C)N(C)C(C)(C)C2)CC1(C)C
135 to 137 °C

Hello, please tell me recorded melting point for this one: O=C1NC(=O)C(Cc2ccccc2)C(=O)N1
207 to 209 °C

New cases:
Hello, please tell me recorded melting point for this one: CCOC(=O)C(=NOC)C1=CSCCS1
65 to 67 °C

Identify the reported melting point for the following entry. O=C(OCc1ccccc1)C(C(=O)OCc1ccccc1)n1cccc1
48.5 to 49 °C

Input CC(C)NC(C)CC1=C2c3ccc(O)cc3CCC2CCNC1=O (stereo not drawn) , output reported melting point.
202 to 204 °C

Complete the entry with melting point for CC1(C)OC[C@H]([C@@H]2CNC(=O)C2)O1
84 to 86 °C

Return reported melting point. Input compound: CCCCCCCCOc1cc(N)c(OCOC)c(OC)c1
56 to 57 °C

Quote melting point reported for O=P(O)(O)C1(P(=O)(O)O)Cc2ccccc2C1 please.
55 to 57 °C

Give a short answer stating reported melting point for COc1ccc(C#N)cc1C(C)(C)C=O .
115 to 117 °C

Quickly give me recorded melting point for O=C(NCCn1cncn1)c1ccco1
131 to 133 °C

Item CC1(C)CCC(C)(C)c2cc(CC#Cc3ccc(CO)c(O)c3)ccc21 : provide melting point
94 to 95 °C

For O=C(O)[C@@H]1C[C@@H](O)CN1C(=O)OCc1ccccc1 , write its melting point.
106 to 107 °C

###

READOUT: melting point

Solved cases below.
Supply reported melting point belonging to this compound: N=C(NS(=O)(=O)C=Cc1ccc([N+](=O)[O-])cc1)c1ccc([N+](=O)[O-])cc1
173 to 177 °C

# return recorded melting point for entry CCCOCCOc1ccccc1-c1ccc2c(c1)C=C(C(=O)Nc1ccc(CN(C)C3CCOCC3)cc1)CCS2(=O)=O
164 to 166 °C

Provide measured melting point value, entry: CCC(=O)OC(C#N)C(C#N)c1cccc(OC)c1 (centres undefined)
73 °C

New cases:
Please look at this compound and report its melting point: Cn1cc(O)c(=O)c2ccc(C#N)cc21
305 °C

Indicate its recorded melting point; the compound in question is CCOC(=O)C1=C(C=NOc2ccc([N+](=O)[O-])cc2[N+](=O)[O-])NC(CF)=C(C(=O)OCC)C1c1cccc([N+](=O)[O-])c1 (centres undefined)
150 to 152 °C

Identify measured melting point associated with CC1(N)CN(c2cc3c(cc2F)c(=O)c(C(=O)O)cn3-c2ccc(F)cc2)C1
270 to 276 °C

Tell us which melting point value is on record for CCOC(=O)Cc1ccc(NC(=O)Nc2ccccc2OC)cc1
107 to 109 °C

Give me measured melting point, please, for this compound: ClC1=Nc2cccc(Br)c2C2=NCCN12
220 to 223 °C

Respond only with melting point recorded for Oc1ccc(-c2nc3cc(O)cc(Br)c3o2)c(C(F)(F)F)c1
183 to 185 °C

###

READOUT: melting point

Tell me measured melting point for CCCCNc1cccc2c1C(=O)c1cccc(NCCCC)c1C2=O please.
152 to 153 °C

Identify measured melting point corresponding to COc1cc(F)ccc1-c1c(/C=C/C(O)CC(=O)O)c2ccccc2c(=O)n1C(C)C (centres undefined)
207 to 209 °C

Give me measured melting point, please, for this molecule: CN1CC(c2ccc(S(C)(=O)=O)cc2)=C(c2cccc(Cl)c2)C1=O
168 to 170 °C

State its melting point for this molecule: CN1Cc2cccnc2C(N2CC[N+]([O-])(C(=O)Cc3ccncc3)CC2)c2ccc(Cl)cc21 (centres undefined)
115 to 118 °C

***
Quick one: give measured melting point for Cc1cc(CN(C)c2cc(-c3ccc(Cl)cc3)nn2C)cc(C)c1OC(C)(C)C(=O)O
158 °C

###

Below, each entry is listed alongside its reported melting point.

In the examples that follow, each entry is paired with its recorded melting point.
Read the entry COC(=O)C1CN(C(=O)c2cc(OC)c(OC)c(OC)c2)CCN1C(=O)OC(C)(C)C (stereo unspecified) and write its reported melting point.
163 to 164 °C

Annotate the compound NCCSc1ncccc1C(O)c1ccccc1 (stereo unspecified) with its measured melting point.
118 to 120 °C

Hello, please tell me recorded melting point for this one: Cc1cc(-c2ccc(C(F)(F)F)cc2)nc(S(C)(=O)=O)n1
94 to 97 °C

Using known records, supply melting point for C#Cc1ccc(Br)c(C(F)(F)F)c1
< 50 °C

Check the records and state melting point for Clc1ccc(C2(CBr)OCC(c3ccc(Cl)cc3Cl)O2)cc1 (stereo unspecified)
82.7 °C

Respond only with melting point recorded for c1ccc(-c2nc3ccc(N4CCC(N5CCCC5)CC4)nn3c2-c2ccncc2)cc1
165 to 166 °C

Give me measured melting point, please, for this compound: CCn1nc2c(OC)nc3ccccc3c2c1CO
219 to 220 °C

For the compound CCNc1c(C)c(C)c2c(c1C)CC(C)(CN1CCC(c3ccccc3)CC1)O2 (stereo unspecified) , give its reported melting point.
84 to 86 °C

# return recorded melting point for input CC(Oc1cc(C(F)(F)F)cc(C(F)(F)F)c1)C(N)=O (stereo unspecified)
84 to 85 °C

Quote melting point reported for COc1ccc2cc3c(Cl)n[nH]c3nc2c1 please.
296 to 297 °C

Continuing:
Please list melting point recorded for the compound O=C(Nc1ccc(-n2nc(C(F)(F)F)cc2C(F)(F)F)cc1)C1(O)CC1
198 to 200 °C

###

READOUT: melting point

Examples with their reported melting point follow.
Identify measured melting point corresponding to CCCCCCCCN(C[C@H]1CCC[C@H](CN(CCCCCCCC)C(=O)Nc2ccc(N(C)C)cc2)C1)C(=O)Nc1ccc(N(C)C)cc1 (relative stereo)
115 to 119 °C

Dear colleague, please send me the reported melting point for CN(C)c1ccc(-c2ccc3c(c2)CC[C@H]2N(C)C(=O)CC[C@]32C)cc1 when you can.
197 to 202 °C

Using known records, supply melting point for Cc1[nH]cnc1CSCCN=CNS(=O)(=O)c1ccccc1
48 to 51 °C

Okay, next one:
For the molecule COc1ccc(-c2cc3ccccc3[nH]2)cc1NCc1ccc(O)c([N+](=O)[O-])c1 , report melting point.
165 to 166 °C

###

READOUT: melting point

// below: answered compounds
Identify the reported melting point for the following entry. COc1ccccc1-n1c(=O)[nH]c2c(C(N)=O)nc(-c3cccc(C(N)=O)c3)nc21
338 to 339 °C

Please supply the value of reported melting point for the item O=c1cc(C(F)(F)F)nc(ON=C2CCCC2)n1-c1cc(Oc2ccccc2[N+](=O)[O-])c(Cl)cc1F
76 to 78 °C

Indicate the recorded melting point value for this compound: CCC1(CCCCN2CCN(c3ccccn3)CC2)C(=O)Nc2ccc(Cl)cc21 (stereo not given)
154 to 156 °C

Continuing:
Give melting point for CC(=O)SCC(C(=O)N[C@@H](CC(C)C)C(=O)O)C(F)(F)F (stereo not given in full)
150 to 152 °C

Specify melting point for CSc1c(C)c(-c2ncc(Cl)cc2F)nn1C and stop.
61 to 64 °C

Name the recorded melting point of the item Cc1ccc(S(=O)(=O)N2C[C@@H]3C[C@H]2CN3C)cc1 in your answer.
87 to 88 °C

###

Listed compounds paired with reported melting point

Consider the compound COc1ccc(OC)c(C2CC=CCC2[N+](=O)[O-])c1 (stereo not given) and give its recorded melting point.
73 to 75 °C

State, in one line, measured melting point of O=Cc1ccc(C=CC(=O)N2CCc3c([nH]c4ccccc34)C2c2ccc3c(c2)CCO3)cc1 (stereo not given)
175 °C

Answer with the recorded melting point for the compound listed here: CCOC(=O)N1CCN(c2ccc(C(=O)CCc3ccc(N)cc3)cc2)CC1
106 to 107 °C

Determine from records and report melting point for CC(c1ccc(-c2ccccc2)c(F)c1)c1cc(N)on1 (stereo not given)
122 to 123 °C

Supply measured melting point of Cc1nn(CC(O)c2ccc(Cl)cc2)c(=O)n1-c1ccc(N2CCN(c3ccc(O)cc3)CC2)cc1 (single isomer, unassigned; (+)) in your reply.
249 °C

Using the record for CS(=O)(=O)NC(=O)c1ccc(OCCn2ccnc2)cc1 , state its measured melting point.
198 to 199 °C

Entry CCOC(=O)C(C#N)=CC=Cc1ccc(C(C)(C)C)cc1 needs its melting point filled in; supply it.
65 to 70 °C

Supply recorded melting point for COc1cnc2c(C)ccc(-c3cccc(C(F)(F)F)c3)c2n1 here.
119 to 121 °C

More entries:
Using known records, supply melting point for O=C1Nc2ccccc2SC1CCCCCl (stereo not given)
111 to 112 °C

Fill in reported melting point for this entry: COc1cc(-c2cnc3[nH]cc(C(=O)NCC(C)O)c3n2)cc(OC)c1OC (stereo not given)
202 to 203 °C

Return melting point (reported value) for this compound: Cc1c(CC(C)(C)C(=O)O)n(Cc2ccc(Cl)cc2)c2ccc(OCc3ccc4ccccc4c3)cc12
152 °C
